test protocol: Non-competitive inhibition of chitin synthase extracted from Candida tropicalis ATCC 750 using UDP-GlcNAc as substrate assessed as inhibition constant by Lineweaver-Burk plot analysis
Give measured pKi for each item. Keep answers brief.
pKi (log units): -log10 of the concentration in mol/L.

Please indicate pKi recorded for O=C(/C=C/C(=O)Nc1nc2ccccc2s1)Nc1ccc2c(c1)NC(=O)C1(CCNC1=O)C2 (racemic)
3.94

Please indicate pKi recorded for Cc1cc([N+](=O)[O-])ccc1NC(=O)C1CCN(CC(=O)Nc2ccc3c(c2)NC(=O)C2(CCNC2=O)C3)CC1 (racemic)
3.97

----------
Test system: Cryptococcus neoformans
test protocol: Synergistic antifungal activity against Cryptococcus neoformans ATCC 32719 assessed as fractional inhibitory concentration index in presence of Polyoxin B incubated for 24 hrs by half broth dilution based checkerboard method
Type: functional
Give measured fractional inhibitory concentration index (FICI) for each item. Keep answers brief.

Please indicate fractional inhibitory concentration index (FICI) recorded for O=C(CN1CCC(C(=O)Nc2ccc(Br)cc2)CC1)Nc1ccc2c(c1)NC(=O)C1(CCNC1=O)C2 (racemic)
1.5

Please indicate fractional inhibitory concentration index (FICI) recorded for O=C(CN1CCC(C(=O)Nc2cccc3ccccc23)CC1)Nc1ccc2c(c1)NC(=O)C1(CCNC1=O)C2 (racemic)
1

Please indicate fractional inhibitory concentration index (FICI) recorded for O=C(CN1CCC(C(=O)Nc2cccc(Br)c2)CC1)Nc1ccc2c(c1)NC(=O)C1(CCNC1=O)C2 (racemic)
1

Please indicate fractional inhibitory concentration index (FICI) recorded for Cc1cc([N+](=O)[O-])ccc1NC(=O)C1CCN(CC(=O)Nc2ccc3c(c2)NC(=O)C2(CCNC2=O)C3)CC1 (racemic)
1.5
